test: Selectivity index, ratio of CC50 for african green monkey TF-104 cells to EC50 for virucidal activity against KJ56-1 Povine rotavirus […]; type: toxicity, cell-based; details: read-out: Ratio CC50/EC50
Measured Quantity: selectivity ratio

>>> measured_value("CC(C)=CCc1c(O)cc2oc(-c3ccc(O)cc3)c(O)c(=O)c2c1O [LICOFLAVONOL]")
2.3
>>> measured_value("COc1c(CC=C(C)C)c(O)cc2c1C[C@H](c1ccc(O)cc1O)CO2 [GLYASPERIN C]")
2.3
>>> measured_value("COc1c(CC=C(C)C)c(O)cc2oc(-c3ccc(O)cc3O)cc12 [LICOCOUMARONE]")
2.1

* * *

experiment: Selectivity index, ratio of CC50 for african green monkey TF-104 cells to EC50 for cytopathic inhibition activity against KJ56-1 Bovine rotavirus G8P[7]; format: toxicity, cell-based; conditions: read-out: Ratio CC50/EC50
Measured Quantity: selectivity ratio

>>> measured_value("CC(C)=CCc1c(O)cc2oc(-c3ccc(O)cc3)c(O)c(=O)c2c1O [LICOFLAVONOL]")
3.3
>>> measured_value("COc1cc2c(c(OC)c1CC=C(C)C)C[C@H](c1ccc(O)cc1O)CO2 [GLYASPERIN D]")
1.6
>>> measured_value("COc1c(CC=C(C)C)c(O)cc2oc(-c3ccc(O)cc3O)cc12 [LICOCOUMARONE]")
2.5
>>> measured_value("COc1c(CC=C(C)C)c(O)cc2c1C[C@H](c1ccc(O)cc1O)CO2 [GLYASPERIN C]")
3.6
>>> measured_value("O=c1c(-c2ccc(O)cc2)coc2cc(O)cc(O)c12 [GENISTEIN]")
1.8

* * *

system: Bovine rotavirus; assay: Antiviral activity against KJ56-1 Bovine rotavirus G8P[7] infected in african green monkey TF-104 cells assessed as inhibition of viral mRNA synthesis at 40 to 50 uM after 18 hrs by RT-PCR analysis; type: functional, cell-based
The source made the active and inactive calls. No cut-off for these calls is given here.
Measured Quantity: inhibition

>>> measured_value("COc1cc(O)ccc1C(=O)/C=C/c1ccc(O)cc1")
"Active"
>>> measured_value("COc1cc2c(c(OC)c1CC=C(C)C)C[C@H](c1ccc(O)cc1O)CO2")
"Active"
>>> measured_value("CC(C)=CCc1c(O)cc2oc(-c3ccc(O)cc3)c(O)c(=O)c2c1O")
"Active"
>>> measured_value("COc1c(CC=C(C)C)c(O)cc2c1C[C@H](c1ccc(O)cc1O)CO2")
"Active"
>>> measured_value("COc1c(CC=C(C)C)c(O)cc2oc(-c3ccc(O)cc3O)cc12")
"Active"

* * *

test: Cytotoxicity against african green monkey TF-104 cells after 72 hrs by MTT assay; format: cell-based; details: chlorocebus aethiops
Measured Quantity: CC50 at 72 h (µM)

>>> measured_value("O=c1c(-c2ccc(O)cc2)coc2cc(O)cc(O)c12")
174
>>> measured_value("COc1cc2c(c(OC)c1CC=C(C)C)C[C@H](c1ccc(O)cc1O)CO2")
68.1
>>> measured_value("CC(C)=CCc1c(O)cc2oc(-c3ccc(O)cc3)c(O)c(=O)c2c1O")
85.3
>>> measured_value("COc1c(CC=C(C)C)c(O)cc2c1C[C@H](c1ccc(O)cc1O)CO2")
42.8
>>> measured_value("COc1c(CC=C(C)C)c(O)cc2oc(-c3ccc(O)cc3O)cc12")
54.5

* * *

assay: Selectivity index, ratio of CC50 for african green monkey TF-104 cells to EC50 for cytopathic inhibition activity against KJ56-1 Povine rotavirus […]; assay type: toxicity, cell-based; conditions: read-out: Ratio CC50/EC50
Measured Quantity: selectivity ratio

>>> measured_value("COc1c(CC=C(C)C)c(O)cc2oc(-c3ccc(O)cc3O)cc12")
1.3
>>> measured_value("COc1c(CC=C(C)C)c(O)cc2c1C[C@H](c1ccc(O)cc1O)CO2")
3.6
>>> measured_value("COc1cc(O)ccc1C(=O)/C=C/c1ccc(O)cc1")
5.6

* * *

test: Selectivity index, ratio of CC50 for african green monkey TF-104 cells to EC50 for KJ56-1 Bovine rotavirus G8P[7] by virucidal assay; type: toxicity, cell-based; settings: read-out: Ratio CC50/EC50
Measured Quantity: selectivity ratio

>>> measured_value("CC(C)=CCc1c(O)cc2oc(-c3ccc(O)cc3)c(O)c(=O)c2c1O")
5.5
>>> measured_value("COc1cc2c(c(OC)c1CC=C(C)C)C[C@H](c1ccc(O)cc1O)CO2")
5.7
>>> measured_value("COc1c(CC=C(C)C)c(O)cc2oc(-c3ccc(O)cc3O)cc12")
1.4
>>> measured_value("COc1cc2oc(=O)c(-c3ccc(O)cc3O)cc2c(OC)c1CC=C(C)C")
"> 1.5"
>>> measured_value("COc1c(CC=C(C)C)c(O)cc2c1C[C@H](c1ccc(O)cc1O)CO2")
2.9

* * *

tested on: Porcine rotavirus; assay: Antiviral activity against KJ56-1 Porcine rotavirus G5P[7] infected in african green monkey TF-104 cells assessed as inhibition of virus-induced cytopathic effect after 72 hrs; type: functional, cell-based; details: TF-104, 72 h
pEC50: −log10 of the molar value.
Measured Quantity: pEC50

>>> measured_value("COc1c(CC=C(C)C)c(O)cc2c1C[C@H](c1ccc(O)cc1O)CO2")
4.92
>>> measured_value("COc1c(CC=C(C)C)c(O)cc2oc(-c3ccc(O)cc3O)cc12")
4.36
>>> measured_value("COc1cc(O)ccc1C(=O)/C=C/c1ccc(O)cc1")
4.62
